tested on: HS 578T breast; experiment: NCI tumour cell line growth inhibition, 48 h
Below, each entry is listed with its recorded TGI.
Give the number; µM is assumed, so skip it.

[ask] Annotate the compound N=C1C(c2nc3ccccc3s2)=C(O)CN1c1ccc(F)c(Cl)c1 with its measured TGI.
[reply] 64.5

[ask] Annotate the compound COc1ccc([C@H]2CC(=O)C[C@H](c3ccc(OC)cc3)C23C(=O)c2ccccc2C3=O)cc1 with its measured TGI.
[reply] 87.8

[ask] Annotate the compound O=C1C(Cl)=C(Nc2cccc(F)c2)C(=O)N1Cc1ccc(Cl)cc1 with its measured TGI.
[reply] 9.28

[ask] Annotate the compound O=c1c2ccccc2nc(-c2cc3c(cc2Cl)Sc2nccn2S3(=O)=O)n1-c1ccccc1 with its measured TGI.
[reply] 42.7

Cited source for all entries: PubChem BioAssay (NCI)
